system: muPA-Y99A (murine)
experimental_details: enzyme inhibition (steady state, chromogenic substrate S-2444); about 2 nM enzyme (purified or conditioned medium of transfected cells) pre-incubated 15 min with varied peptide in HBS (10 mM HEPES pH 7.4, 140 mM NaCl) with 0.1% BSA at 37°C; substrate about KM; fit for competitive inhibition; highest peptide concentration 400 µM
Bridge positions count the residues as written; N and C are the ends. Ends that are not written are not given here.
I'd appreciate it if you could supply pKi values for the items below.
Answers are plain numbers, as −log10 of the molar value.

- binder: "CPAYSRYLAC (disulfide 1-10 (inferred)) [Mupain-1 D9A]"
  endpoint_name: "pKi"
  quantitative_result: 4.57

Please find the next binder below.
The binder listed as CPAYSRYLDC (disulfide 1-10 (inferred)) [mupain-1] has a reported pKi of 4.59
